Answer each item with its documented pIC50.
# tgt: EGFR (Human), P00533 [Assessment of EGFR-Del T790M Dependent Cell Proliferation in BaF3 Cells]
# Sequence (P00533 whole entry, looked up, stated change not applied): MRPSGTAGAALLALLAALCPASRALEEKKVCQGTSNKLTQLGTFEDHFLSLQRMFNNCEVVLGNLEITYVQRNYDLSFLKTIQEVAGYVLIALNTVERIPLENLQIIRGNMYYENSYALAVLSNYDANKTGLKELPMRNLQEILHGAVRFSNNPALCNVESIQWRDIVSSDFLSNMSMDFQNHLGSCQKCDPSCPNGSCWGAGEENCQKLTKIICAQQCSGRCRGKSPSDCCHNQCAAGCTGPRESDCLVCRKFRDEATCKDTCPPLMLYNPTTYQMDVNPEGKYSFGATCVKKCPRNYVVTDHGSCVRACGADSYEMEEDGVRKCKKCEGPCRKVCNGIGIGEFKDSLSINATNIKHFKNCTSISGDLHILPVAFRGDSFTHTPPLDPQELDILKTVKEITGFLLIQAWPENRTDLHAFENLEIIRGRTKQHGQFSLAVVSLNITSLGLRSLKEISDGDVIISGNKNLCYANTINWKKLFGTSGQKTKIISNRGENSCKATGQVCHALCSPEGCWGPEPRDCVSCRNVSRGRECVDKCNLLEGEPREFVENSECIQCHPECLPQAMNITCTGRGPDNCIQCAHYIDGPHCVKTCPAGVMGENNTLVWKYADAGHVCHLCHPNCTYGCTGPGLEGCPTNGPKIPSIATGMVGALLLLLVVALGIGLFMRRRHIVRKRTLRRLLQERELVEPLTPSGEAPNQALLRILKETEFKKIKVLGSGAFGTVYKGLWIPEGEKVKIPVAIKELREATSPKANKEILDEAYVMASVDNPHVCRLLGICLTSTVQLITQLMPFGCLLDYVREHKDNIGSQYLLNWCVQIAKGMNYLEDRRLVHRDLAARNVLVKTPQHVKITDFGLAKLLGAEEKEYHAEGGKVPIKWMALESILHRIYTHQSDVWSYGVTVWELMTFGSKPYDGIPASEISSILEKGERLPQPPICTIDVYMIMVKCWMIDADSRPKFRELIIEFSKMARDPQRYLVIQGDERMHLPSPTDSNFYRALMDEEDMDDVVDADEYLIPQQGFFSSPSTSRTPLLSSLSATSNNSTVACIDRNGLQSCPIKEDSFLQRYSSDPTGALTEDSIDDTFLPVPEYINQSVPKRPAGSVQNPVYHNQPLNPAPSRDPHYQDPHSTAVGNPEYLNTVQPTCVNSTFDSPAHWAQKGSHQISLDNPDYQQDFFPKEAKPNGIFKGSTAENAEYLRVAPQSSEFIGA
pIC50: −log10 of the molar value.

[Q] Answer with reported pIC50 of C=CC(=O)Nc1cc(Nc2ncc(Cl)c(Nc3ccccc3P(C)(C)=O)n2)c(OC)cc1OCC1CCCN1C (stereo not given)
[A] > 7.30

[Q] Answer with reported pIC50 of C=CC(=O)Nc1cc(Nc2ncc(Cl)c(Nc3ccccc3P(C)(C)=O)n2)c(C)cc1OC(COC)CN(C)C (stereo not given)
[A] > 7.30

[Q] Answer with reported pIC50 of C=CC(=O)Nc1cc(Nc2ncc(Cl)c(Nc3ccccc3P(C)(C)=O)n2)c(OC)cc1C#CC(C)(C)N(CC)CC
[A] > 7.30

[Q] Answer with reported pIC50 of C=CC(=O)Nc1cc(Nc2ncc(Cl)c(Nc3ccccc3P(C)(C)=O)n2)c(CC)cc1C#CCN(C)C
[A] > 7.30

[Q] Answer with reported pIC50 of C=CC(=O)Nc1cc(Nc2ncc(Cl)c(Nc3ccccc3P(C)(C)=O)n2)c(OC)cc1C#CCN(C)C
[A] > 7.30

[Q] Answer with reported pIC50 of CNC(=O)/C=C/C(=O)Nc1ccc(OC)c(Nc2ncc(Cl)c(Nc3ccccc3P(C)(C)=O)n2)c1
[A] 7.00 to 7.30

[Q] Answer with reported pIC50 of C=CC(=O)Nc1cc(Nc2ncc(Cl)c(Nc3ccccc3P(C)(C)=O)n2)c(OC)cc1N1CC[C@@H](N(C)C)C1
[A] > 7.30

[Q] Answer with reported pIC50 of C=CC(=O)Nc1cc(Nc2ncc(Cl)c(Nc3ccccc3P(C)(C)=O)n2)c(OC)cc1OC(CF)CN(CC)CC (stereo not given)
[A] > 7.30

[Q] Answer with reported pIC50 of C=C(CN1CCC(O)C1)C(=O)Nc1ccc(OC)c(Nc2ncc(Cl)c(Nc3ccccc3P(C)(C)=O)n2)c1 (stereo not given)
[A] > 7.30

[Q] Answer with reported pIC50 of C=CC(=O)Nc1cc(Nc2ncc(Cl)c(Nc3ccccc3P(C)(C)=O)n2)c(OC)cc1N1CCC(N(CC)CC)C1 (stereo not given)
[A] > 7.30

[Q] Answer with reported pIC50 of C=CC(=O)Nc1cc(Nc2ncc(Cl)c(Nc3ccccc3P(C)(C)=O)n2)c(OC)cc1N1CCC(N2CCC2)C1 (stereo not given)
[A] > 7.30

[Q] Answer with reported pIC50 of COc1ccc(NC(=O)C#CCN(C)C)cc1Nc1ncc(Cl)c(Nc2ccccc2P(C)(C)=O)n1
[A] > 7.30

[Q] Answer with reported pIC50 of C=CC(=O)Nc1cc(Nc2ncc(Cl)c(Nc3ccccc3P(C)(C)=O)n2)c(OC)cc1N1CCCN(C)CC1
[A] > 7.30

[Q] Answer with reported pIC50 of COc1cc(F)c(NC(=O)CCl)cc1Nc1ncc(Cl)c(Nc2ccccc2P(C)(C)=O)n1
[A] > 7.30

[Q] Answer with reported pIC50 of COc1ccc(NC(=O)CCl)cc1Nc1ncc(Cl)c(Nc2ccccc2P(C)(C)=O)n1
[A] > 7.30

[Q] Answer with reported pIC50 of COc1cc(N2CCOCC2)c(NC(=O)C#CCCN2CCN(C)CC2)cc1Nc1ncc(Cl)c(Nc2ccccc2P(C)(C)=O)n1
[A] > 7.30

[Q] Answer with reported pIC50 of C=CC(=O)Nc1cc(Nc2ncc(Cl)c(Nc3ccccc3P(C)(C)=O)n2)c(OC)cc1C#CC1(N(C)C)CC1
[A] 6.60 to 7.00

[Q] Answer with reported pIC50 of C=CC(=O)Nc1cc(Nc2ncc(Cl)c(Nc3ccccc3P(C)(C)=O)n2)c(OC)cc1C#CCN1CCN(C)CC1
[A] > 7.30

[Q] Answer with reported pIC50 of C=CC(=O)Nc1cc(Nc2ncc(Cl)c(Nc3ccccc3P(C)(C)=O)n2)c(Cl)cc1OC(COC)CN(C)C (stereo not given)
[A] > 7.30

[Q] Answer with reported pIC50 of C=CC(=O)Nc1cc(Nc2ncc(Cl)c(Nc3ccccc3P(C)(C)=O)n2)c(OC)cc1C#CCN(C(C)C)C(C)C
[A] > 7.30

[Q] Answer with reported pIC50 of C=CC(=O)Nc1cc(Nc2ncc(Cl)c(Nc3ccccc3P(C)(C)=O)n2)c(OC)cc1N1CCN(C2CCN(C)CC2)CC1
[A] 7.00 to 7.30

[Q] Answer with reported pIC50 of COc1ccc(NC(=O)/C=C/CN2CCCC2)cc1Nc1ncc(Cl)c(Nc2ccccc2P(C)(C)=O)n1
[A] 7.00 to 7.30

[Q] Answer with reported pIC50 of C=CC(=O)Nc1cc(Nc2ncc(Cl)c(Nc3ccccc3P(C)(C)=O)n2)c(OC)cc1OCC1CCOCC1
[A] 7.00 to 7.30

[Q] Answer with reported pIC50 of C=CC(=O)Nc1cc(Nc2ncc(Cl)c(Nc3ccccc3P(C)(C)=O)n2)c(OC)cc1N1CCCC(N(C)C)C1 (stereo not given)
[A] > 7.30

[Q] Answer with reported pIC50 of C=C(CN1CCC(N2CCN(C)CC2)CC1)C(=O)Nc1ccc(OC)c(Nc2ncc(Cl)c(Nc3ccccc3P(C)(C)=O)n2)c1
[A] > 7.30

* * *

# tgt: EGFR (Human), P00533 [T790M/L858R]
# Sequence (P00533 whole entry T790M/L858R, looked up): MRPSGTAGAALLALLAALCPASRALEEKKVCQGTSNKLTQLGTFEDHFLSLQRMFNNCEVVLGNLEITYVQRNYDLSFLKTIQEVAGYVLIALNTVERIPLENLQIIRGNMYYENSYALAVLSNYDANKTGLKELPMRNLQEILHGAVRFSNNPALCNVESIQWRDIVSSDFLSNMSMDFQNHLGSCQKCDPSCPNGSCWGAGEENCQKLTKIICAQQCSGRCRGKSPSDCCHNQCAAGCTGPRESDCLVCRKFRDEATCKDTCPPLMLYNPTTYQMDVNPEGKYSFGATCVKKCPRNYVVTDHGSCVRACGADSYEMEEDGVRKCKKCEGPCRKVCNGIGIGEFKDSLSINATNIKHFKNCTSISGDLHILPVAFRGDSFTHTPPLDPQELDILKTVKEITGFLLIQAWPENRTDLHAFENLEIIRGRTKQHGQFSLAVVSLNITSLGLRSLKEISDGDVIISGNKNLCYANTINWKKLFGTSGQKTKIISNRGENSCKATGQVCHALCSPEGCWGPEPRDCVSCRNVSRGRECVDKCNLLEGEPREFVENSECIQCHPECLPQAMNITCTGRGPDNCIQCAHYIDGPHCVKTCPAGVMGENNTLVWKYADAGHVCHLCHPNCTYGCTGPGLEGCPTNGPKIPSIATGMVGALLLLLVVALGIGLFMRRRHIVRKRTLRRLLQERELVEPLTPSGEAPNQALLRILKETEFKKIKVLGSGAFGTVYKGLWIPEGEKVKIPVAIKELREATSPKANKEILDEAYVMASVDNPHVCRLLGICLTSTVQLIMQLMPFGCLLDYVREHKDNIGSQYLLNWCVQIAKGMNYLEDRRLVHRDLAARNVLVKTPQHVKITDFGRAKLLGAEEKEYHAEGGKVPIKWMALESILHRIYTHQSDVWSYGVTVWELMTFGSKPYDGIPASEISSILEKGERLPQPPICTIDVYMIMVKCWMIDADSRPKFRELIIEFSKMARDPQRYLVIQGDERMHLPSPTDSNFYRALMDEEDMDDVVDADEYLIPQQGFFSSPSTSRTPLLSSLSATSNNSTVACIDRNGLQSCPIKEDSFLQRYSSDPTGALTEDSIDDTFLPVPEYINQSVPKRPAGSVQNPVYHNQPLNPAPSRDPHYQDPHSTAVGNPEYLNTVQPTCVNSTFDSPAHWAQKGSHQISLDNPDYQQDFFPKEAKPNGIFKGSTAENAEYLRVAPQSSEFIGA
# measurementConditions: baf3
pIC50: −log10 of the molar value.
attributeMeasured: pIC50

[Q] Answer with reported pIC50 of C=CC(=O)Nc1cc(Nc2ncc(Cl)c(Nc3ccccc3P(C)(C)=O)n2)c(OC)cc1C#CC1(N(C)C)CC1
[A] 6.60 to 7.00

[Q] Answer with reported pIC50 of CC#CC(=O)Nc1cc(Nc2ncc(Cl)c(Nc3ccccc3P(C)(C)=O)n2)c(OC)cc1OCCN1CCCC1
[A] 6.60 to 7.00

[Q] Answer with reported pIC50 of CC#CC(=O)Nc1cc(Nc2ncc(Cl)c(Nc3ccccc3P(C)(C)=O)n2)c(OC)cc1OC1COC1
[A] 7.00 to 7.30

[Q] Answer with reported pIC50 of C=CC(=O)Nc1cc(Nc2ncc(Cl)c(Nc3ccccc3P(C)(C)=O)n2)c(CC)cc1C#CCN(C)C
[A] > 7.30

[Q] Answer with reported pIC50 of C=CC(=O)Nc1cc(Nc2ncc(Cl)c(Nc3ccccc3P(C)(C)=O)n2)c(OC)cc1O[C@@H]1CCCN(C)C1
[A] > 7.30

[Q] Answer with reported pIC50 of COc1ccc(NC(=O)/C=C/Cl)cc1Nc1ncc(Cl)c(Nc2ccccc2P(C)(C)=O)n1
[A] > 7.30

[Q] Answer with reported pIC50 of COCCC#CC(=O)Nc1cc(Nc2ncc(Cl)c(Nc3ccccc3P(C)(C)=O)n2)c(OC)cc1N1CCOCC1
[A] > 7.30

* * *

# tgt: EGFR (Human), P00533 [T790M/L858R]
# measurementConditions: baf3
attributeMeasured: IC50

[Q] Give IC50 for this entry on EGFR (Human), P00533 [T790M/L858R]: C=CC(=O)Nc1cc(Nc2ncc(Cl)c(Nc3ccccc3P(C)(C)=O)n2)c(OC)cc1N1CCC(N2CCCCC2)CC1
[A] < 50 nM

[Q] Give IC50 for this entry on EGFR (Human), P00533 [T790M/L858R]: C=CC(=O)Nc1cc(Nc2ncc(Cl)c(Nc3ccccc3P(C)(C)=O)n2)c(OC)cc1C#CCN(CC)CC
[A] < 50 nM

[Q] Give IC50 for this entry on EGFR (Human), P00533 [T790M/L858R]: C=CC(=O)Nc1cc(Nc2ncc(Cl)c(Nc3ccccc3P(C)(C)=O)n2)c(OC)cc1C#CCN(C)CCOC
[A] < 50 nM

[Q] Give IC50 for this entry on EGFR (Human), P00533 [T790M/L858R]: C=CC(=O)Nc1cc(Nc2ncc(Cl)c(Nc3ccccc3P(C)(C)=O)n2)c(OC)cc1OC(CF)CN(CC)CC (stereo unspecified)
[A] < 50 nM

[Q] Give IC50 for this entry on EGFR (Human), P00533 [T790M/L858R]: COc1cc(F)c(NC(=O)C#CCN(C)C)cc1Nc1ncc(Cl)c(Nc2ccccc2P(C)(C)=O)n1
[A] < 50 nM

[Q] Give IC50 for this entry on EGFR (Human), P00533 [T790M/L858R]: C=CC(=O)Nc1cc(Nc2ncc(Cl)c(Nc3ccccc3P(C)(C)=O)n2)c(OC)cc1C#CC(C)(C)N
[A] < 50 nM

[Q] Give IC50 for this entry on EGFR (Human), P00533 [T790M/L858R]: COc1cc(C)c(NC(=O)CCl)cc1Nc1ncc(Cl)c(Nc2ccccc2P(C)(C)=O)n1
[A] < 50 nM

[Q] Give IC50 for this entry on EGFR (Human), P00533 [T790M/L858R]: C=CC(=O)Nc1cc(Nc2ncc(Cl)c(Nc3ccccc3P(C)(C)=O)n2)c(OC)cc1N1CCC(N(C)CCN(CC)CC)C1 (stereo unspecified)
[A] 101 to 250 nM

[Q] Give IC50 for this entry on EGFR (Human), P00533 [T790M/L858R]: C=CC(=O)Nc1cc(Nc2ncc(Cl)c(Nc3ccccc3P(C)(C)=O)n2)c(OC)cc1N1CCC(N2CCCN(C)CC2)CC1
[A] 101 to 250 nM

[Q] Give IC50 for this entry on EGFR (Human), P00533 [T790M/L858R]: C=CC(=O)Nc1cc(Nc2ncc(Cl)c(Nc3ccccc3P(C)(C)=O)n2)c(OC)cc1OC(COC)CN1CCC1 (stereo unspecified)
[A] < 50 nM

[Q] Give IC50 for this entry on EGFR (Human), P00533 [T790M/L858R]: C=CC(=O)Nc1cc(Nc2ncc(Cl)c(Nc3ccccc3P(C)(C)=O)n2)c(OC)cc1OCCN1CCOCC1
[A] 101 to 250 nM
